# procedure.details: In vitro Caco-2 permeability
# Assay type: in vitro ADME
# assay.setup: human
measured.quantity: Papp (×10⁻⁶ cm/s)
One number for each entry, in ×10⁻⁶ cm/s.

stdin: Would you mind telling me what Papp value was observed for O[C@H]1CCCN[C@@H]1CCCn1cnc2c(Cl)c(Cl)ccc21 ?
stdout: 7.67

###

# procedure.details: Plasma and urine pharmacokinetics, part I SAD study
# Type: in vivo, human
# assay.setup: human, plasma, oral, t 1/2, range, SAD, enteric coated capsule
measured.quantity: half-life

stdin: Would you mind telling me what half-life value was observed for O[C@H]1CCCN[C@@H]1CCCn1cnc2c(Cl)c(Cl)ccc21 [Bersiporocin] ?
stdout: 6.91 to 9.9 h

Cited source: paper PMC10339703
